The reported measurements were obtained from ChEMBL document CHEMBL5321274.

Tested on: HeLa
protocol: Induction of autophagy mediated Halotag-fused EGFP (unknown origin) degradation expressed in human HeLa cells assessed as reduction in EGFP-HT substrate level at 0.01 to 1 uM measured after 24 hrs by fluorescence microscopic analysis
Type: cell-based
test.context: dose 0.01-1 µM
Calls of active or inactive are those of the source. The calls are words filed in the database; no cut-off is given here.
Thanks in advance; please answer with one of these: true = active, false = inactive

Answered examples (10):
                                   compound  assigned_category
0  CC(=O)NC(CSc1nc2c(=O)[nH]c(N)nc2n1Cc1ccc(S(C)(=O)=O)cc1)C(=O)NCCOCCOCCOCCOCCOCCCCCCCl (single isomer, unassigned)              false
1  CC(=O)NC(CSc1nc2c(=O)[nH]c(N)nc2n1Cc1ccccc1)C(=O)NCCOCCOCCOCCOCCOCCCCCCCl (single isomer, unassigned)              false
2  Nc1nc2c(nc(-c3cnn(CCOCCOCCOCCOCCOCCCCCCCl)c3)n2Cc2ccc(F)cc2)c(=O)[nH]1               true
3  COc1ccc(Cn2c(SCC(NC(C)=O)C(=O)NCCOCCOCCOCCOCCOCCCCCCCl)nc3c(=O)[nH]c(N)nc32)cc1 (single isomer, unassigned)              false
4  Nc1nc2c(nc(-c3cccc(OCCOCCOCCOCCOCCOCCCCCCCl)c3)n2Cc2ccc(F)cc2)c(=O)[nH]1               true
5  CC(=O)NC(CSc1nc2c(=O)[nH]c(N)nc2n1Cc1cccc(F)c1)C(=O)NCCOCCOCCOCCOCCOCCCCCCCl (single isomer, unassigned)              false
6  CC(=O)NC(CSc1nc2c(=O)[nH]c(N)nc2n1Cc1ccccc1F)C(=O)NCCOCCOCCOCCOCCOCCCCCCCl (single isomer, unassigned)              false
7  Nc1nc2c(nc(-c3cn(CCOCCOCCOCCOCCOCCCCCCCl)nn3)n2Cc2ccc(F)cc2)c(=O)[nH]1               true
8  CC(=O)NC(CSc1nc2c(=O)[nH]c(N)nc2n1Cc1ccc(C#N)cc1)C(=O)NCCOCCOCCOCCOCCOCCCCCCCl (single isomer, unassigned)              false
9  CC(=O)NC(CSc1nc2c(=O)[nH]c(N)nc2n1Cc1ccc(C)cc1)C(=O)NCCOCCOCCOCCOCCOCCCCCCCl (single isomer, unassigned)              false

In this assay, the call recorded for `Nc1nc2c(nc(-c3ccc(OCCOCCOCCOCCOCCOCCCCCCCl)cc3)n2Cc2ccc(F)cc2)c(=O)[nH]1` was what? true
